- Test system: Staphylococcus aureus
- assay.remarks: Antimicrobial activity against Staphylococcus aureus ATCC 25923 after 18 hrs by broth microdilution method
- Format: functional
Positions of bridges follow the written chain, without caps; N, C: chain ends. Non-standard residues stand in square brackets, D forms with d. Residues, ends and D or L forms follow the SMILES beside them. *: point of attachment. Stearoyl = CCCCCCCCCCCCCCCCCC(=O)*; Palmitoyl = CCCCCCCCCCCCCCCC(=O)*; Decanoyl = CCCCCCCCCC(=O)*; X1 = CC[C@H](C)CCCCC(=O)*; Octanoyl = CCCCCCCC(=O)*; Dab = NCC[C@H](N)C(=O)O
assay.readout: MIC (µM)
// note: answer is a bare numeric in µM

{"columns": ["compound", "value.reported"],
 "data": [
  ["CCCCCCCC(=O)N[C@@H](Cc1c[nH]c2ccccc12)C(=O)N[C@@H](CCCNC(=N)N)C(=O)N[C@@H](CCCNC(=N)N)C(N)=O (Octanoyl-Trp-Arg-Arg-NH2)", 128],
  ["CCCCCCCCCCCCCCCCCC(=O)N[C@@H](Cc1c[nH]c2ccccc12)C(=O)N[C@@H](CCCNC(=N)N)C(=O)N[C@@H](CCCNC(=N)N)C(N)=O (Stearoyl-Trp-Arg-Arg-NH2)", 16],
  ["CCCCCCCCCCCCCCCC(=O)N[C@@H](CCCNC(=N)N)C(=O)N[C@@H](Cc1c[nH]c2ccccc12)C(=O)N[C@@H](CCCNC(=N)N)C(N)=O (Palmitoyl-Arg-Trp-Arg-NH2)", 8],
  ["CCCCCCCCCC(=O)N[C@@H](CCCNC(=N)N)C(=O)N[C@@H](Cc1c[nH]c2ccccc12)C(=O)N[C@@H](Cc1c[nH]c2ccccc12)C(N)=O (Decanoyl-Arg-Trp-Trp-NH2)", 32]
]}

Turning now to a further record.
CC[C@H](C)CCCCC(=O)N[C@@H](CCN)C(=O)N[C@H](C(=O)N[C@@H](CCN)C(=O)N[C@H]1CCNC(=O)[C@H]([C@@H](C)O)NC(=O)[C@H](CCN)NC(=O)[C@H](CCN)NC(=O)[C@H](CC(C)C)NC(=O)[C@@H](Cc2ccccc2)NC(=O)[C@H](CCN)NC1=O)[C@@H](C)O (X1-[Dab]T[Dab][Dab][Dab][dF]L[Dab][Dab]T; lactam 4-C) has a reported MIC of 16
